All values here come from ChEMBL document CHEMBL1250499.

Tested on: MCF7
assay-text: Cytotoxicity against human MCF7 cells after 96 hrs by MTT assay
Assay type: functional, cell-based
measurement-context: MCF7, 96 h
quantity-name: pIC50
Recall that pIC50 is obtained by taking minus log10 of the concentration measured in molar.

Previously resolved entries follow.
>  <given-smiles>
COC(=O)c1cc2n(c1C)[C@@H](c1ccccc1)SC2

>  <pIC50>
4.51

$$$$
>  <given-smiles>
Cc1cc(CO)c2n1[C@@H](c1ccccc1)SC2

>  <pIC50>
4.70

$$$$
>  <given-smiles>
Cc1c(COC(=O)NCc2ccccc2)cc2n1[C@@H](c1ccccc1)SC2

>  <pIC50>
5.72

$$$$

stdin: Request body: readout pIC50, system MCF7, query Cc1c(CO)cc2n1[C@@H](c1ccccc1)SC2 . Return the value.
stdout: 5.72

stdin: API: value(readout=pIC50, system=MCF7) for record Cc1c(CO)c(CO)c2n1[C@@H](c1ccccc1)SC2
stdout: 6.22

====

Tested on: WiDr
assay-text: Cytotoxicity against human WiDr cells after 48 hrs by MTT assay
Assay type: functional, cell-based
Measured pIC50 of individual entries
The meaning of pIC50 here: minus log10 of the concentration in molar units.

Answered examples (3):
>  <given-smiles>
Cc1c(CO)cc2n1[C@@H](c1ccccc1)SC2

>  <assay-system>
WiDr

>  <measured-number>
4.77

$$$$
>  <given-smiles>
COC(=O)c1cc2n(c1C)[C@@H](c1ccccc1)SC2

>  <assay-system>
WiDr

>  <measured-number>
4.24

$$$$
>  <given-smiles>
Cc1c(COC(=O)NCc2ccccc2)cc2n1[C@@H](c1ccccc1)SC2

>  <assay-system>
WiDr

>  <measured-number>
5.06

$$$$

stdin: For Cc1c(CO)c(CO)c2n1[C@@H](c1ccccc1)SC2 , what is its reported pIC50?
stdout: 5.04

stdin: Which measured pIC50 value corresponds to Cc1cc(CO)c2n1[C@@H](c1ccccc1)SC2 ?
stdout: 4.02

====

Entries and their IC50
System: A-375
assay-text: Cytotoxicity against human A375 cells after 48 hrs by MTT assay
Assay type: functional, cell-based
measurement-context: A-375, 48 h
Write the answer as a number in µM, unit excluded.

Below, 4 compounds whose answers are already recorded.
>  <given-smiles>
Cc1c(CO)cc2n1[C@@H](c1ccccc1)SC2

>  <unit-text>
µM

>  <IC50>
69.8

$$$$
>  <given-smiles>
Cc1c(COC(=O)NCc2ccccc2)cc2n1[C@@H](c1ccccc1)SC2

>  <unit-text>
µM

>  <IC50>
32.4

$$$$
>  <given-smiles>
Cc1c(CO)c(CO)c2n1[C@@H](c1ccccc1)SC2

>  <unit-text>
µM

>  <IC50>
36.1

$$$$
>  <given-smiles>
COC(=O)c1cc2n(c1C)[C@@H](c1ccccc1)SC2

>  <unit-text>
µM

>  <IC50>
65.1

$$$$

# next compound below
stdin: Consider the compound Cc1cc(CO)c2n1[C@@H](c1ccccc1)SC2 and give its measured IC50.
stdout: 106

====

System: MCF7
assay-text: Cytotoxicity against human MCF7 cells after 72 hrs by MTT assay
Format: functional, cell-based
measurement-context: MCF7, 72 h
Strictly below 30 µM in IC50: y. Otherwise: n.

>  <given-smiles>
Cc1c(CO)cc2n1[C@@H](c1ccccc1)SC2

>  <assigned-label>
y

$$$$

stdin: Report whether reported IC50 is lower than 30 µM (strictly) for COC(=O)c1cc2n(c1C)[C@@H](c1ccccc1)SC2
stdout: n

stdin: API: query returns whether the compound falls strictly under 30 µM in IC50. Query: Cc1c(COC(=O)NCc2ccccc2)cc2n1[C@@H](c1ccccc1)SC2
stdout: y

stdin: Quick check: IC50 of Cc1c(CO)c(CO)c2n1[C@@H](c1ccccc1)SC2 under 30 µM?
stdout: y
